Kindly supply the reported GI50 values for the records listed here.
# Tested on: M19-MEL
# assay-remarks: NCI tumour cell line growth inhibition, 48 h
Calls of active or inactive are those of the source. No stated cut-off is given here; in the data, active = GI50 up to about 1.1 µM and inactive = higher.

Cc1nc2ccc(C(F)(F)F)cc2nc1Nc1ccc(Cl)c(Cl)c1: 12.1 µM (inactive)
C/C(=N\N=C(/S)N1CCCCCC1)c1cccc[n+]1[O-]: 8.39 µM (inactive)
COC(=O)c1ccc(/C=C/S(=O)(=O)c2ccccc2)cc1: > 100 µM (inactive)
CCc1c(-c2coc(CC/C(C)=C/c3ccccc3)n2)oc(OC)c(C)c1=O: 31.8 µM (inactive)
CCC(CC)NC1=C(NC(C)=O)C(=O)c2ccccc2C1=O: > 50 µM (inactive)
O=c1[nH]nc2ccccc2c1Cc1ccccc1: > 100 µM (inactive)
O=C1c2ccccc2C(=O)N1CCN(CCN1C(=O)c2ccccc2C1=O)Cn1cccn1: 69.8 µM (inactive)
CN(C)CCC1(C2=CCCC2)CC/C(=C\c2ccccc2)C1=O (stereo unspecified): 15.2 µM (inactive)

Need GI50 for each of these compounds.
1. c1cc2c(ncc3cscc32)s1
2. CCOC(=O)CCC(NC(=O)c1ccc(NCc2ccc3nc(-c4ccccc4)c(Cl)nc3c2)cc1)C(=O)OCC (stereo unspecified)
3. Nc1ccn(C2(CO)C=C(CO)C(O)C2O)c(=O)n1 (stereo unspecified)

> 100 µM (inactive)
17.4 µM (inactive)
> 25.8 µM (inactive)

Taken from ChEMBL document CHEMBL1201862.
